tested on: ATP; test: switch fluorescence ratio, 500 uM ATP over buffer (Cy3 cluster intensity, sum of 5 cycles each) (fold (ratio)); higher = stronger signal-on switching upon ATP binding; sequences stand for … in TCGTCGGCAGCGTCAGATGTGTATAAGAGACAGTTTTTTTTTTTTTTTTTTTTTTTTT…TC; settings: aptamer strand: ATP DNA aptamer (quencher-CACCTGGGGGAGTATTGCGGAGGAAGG + anchor), 100 nM annealed; ATP concentration: 500 uM;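 further: ATP exposure 15 min at 22 °C before imaging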
Readout name: switch fluorescence ratio
The reply should be a number, written without any unit.

What does the record list as switch fluorescence ratio for "GGCATTTGTG" ?
1

Another: "TAGGAGTGAG"
0.979

Another: "ACGAAATCGG"
1.03

Another: "TTTGGGGTAC"
1.72

Another: "CAATGGTGGT"
1.01

Another: "CGAAGGGGAA"
1.03

Another: "TAAAGGTTGG"
0.962

Another: "CGTTTGTTCT"
1.03

Another: "AAGGAATTAA"
1.07

Another: "GGCCGCGGAC"
1.01

Another: "GGGGGATAAG"
1

Another: "TCACGGTGTG"
0.983

Another: "ATTGTGCTGA"
0.948

Another: "AACTCAGCCG"
1.03

Another: "GGGGTAAGAG"
1.02

Another: "GCTTGACG"
1

Another: "ATCATTTTTG"
1

Another: "TGTAGTTTGA"
1

Another: "ACAGAGGGTG"
1.08

Another: "CTGAGTTTGA"
1

Another: "GGGTATATGT"
1

Another: "TTAGGGTCGT"
1.01

Another: "TGTAGTACTT"
1.02

Another: "TGTTGCTCCA"
1.05

Another: "TTCAAAGATG"
0.974

Another: "GCCAGTAAGT"
0.994

Another: "TTAAACCTGG"
1.08

Another: "GAGGAGGCCA"
0.983

###

Please provide measured switch fluorescence ratio for the entries that follow.
tested on: ATP; experiment: switch fluorescence ratio, 500 uM ATP over buffer (Cy3 cluster intensity, sum of 5 cycles each) (fold (ratio)); higher = stronger signal-on switching upon ATP binding; sequences stand for … in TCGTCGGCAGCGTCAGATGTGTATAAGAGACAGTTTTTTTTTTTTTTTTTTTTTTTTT…TC; details: aptamer strand: ATP DNA aptamer (quencher-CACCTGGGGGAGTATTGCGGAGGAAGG + anchor), 100 nM annealed; ATP concentration: 500 uM;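 further: ATP exposure 15 min at 22 °C before imaging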
The reply should be a number, written without any unit.

What does the record list as switch fluorescence ratio for "GCGGATAAGC" ?
1.01

Another: "GTGTTAGTTA"
1.01

Another: "CGAGGGCTGA"
1.02

Another: "TAGTACTGTG"
0.998

Another: "ACAACGGAAG"
1.03

Another: "GCTTGTAGTT"
0.987

Another: "TAATTTACAG"
1

Another: "ATAAGGCTAA"
0.982

Another: "GAGGGGGTCA"
1.02

Another: "TATTTCGGGG"
1.02

Another: "TTTCAGGTGG"
1.02

Another: "AATTCTGGTT"
0.966

Another: "GGTGTGCGTC"
1

Another: "GGGGGATCTC"
1.01

Another: "GGTTCACGGT"
0.994

Another: "CTTATAATTG"
0.994

Another: "CCTTAATTTT"
1.01

Another: "AGGCATTGGG"
1.02

Another: "GGTTTTTACG"
0.985

Another: "GCGTGCGTGT"
1.03

Another: "CGTTCAGCT"
1.01

Another: "TCGTGTTCGA"
1

Another: "GAATAAGGGA"
1

Another: "AGATTAATTG"
0.994

Another: "AGTTGGGGAG"
0.993

Another: "TACATCCGAG"
1.08

Another: "CGATATGATG"
1.01

Another: "GTCAAAAATT"
0.987

Another: "ATGTAAAATG"
1.04

Another: "TGGGATGGGC"
1.05

Another: "AAGGATTGGG"
1.02

Another: "CAGAGAGTTA"
0.984

Another: "CTAAGTTTGA"
1.03

Another: "GGTTCTGTGT"
0.99

Another: "CGAGGGATTT"
1.05

Another: "AGTCTTCTGG"
1.01

Another: "CGGAAAATTT"
1.01

The values you see were collected from the supplement of paper PMC10126150.
